Overview of reported % Enzyme Activity (relative to DMSO controls), Average across a group of compounds:
# Target System: UniProt P35968
# Sequence (P35968 20-1356): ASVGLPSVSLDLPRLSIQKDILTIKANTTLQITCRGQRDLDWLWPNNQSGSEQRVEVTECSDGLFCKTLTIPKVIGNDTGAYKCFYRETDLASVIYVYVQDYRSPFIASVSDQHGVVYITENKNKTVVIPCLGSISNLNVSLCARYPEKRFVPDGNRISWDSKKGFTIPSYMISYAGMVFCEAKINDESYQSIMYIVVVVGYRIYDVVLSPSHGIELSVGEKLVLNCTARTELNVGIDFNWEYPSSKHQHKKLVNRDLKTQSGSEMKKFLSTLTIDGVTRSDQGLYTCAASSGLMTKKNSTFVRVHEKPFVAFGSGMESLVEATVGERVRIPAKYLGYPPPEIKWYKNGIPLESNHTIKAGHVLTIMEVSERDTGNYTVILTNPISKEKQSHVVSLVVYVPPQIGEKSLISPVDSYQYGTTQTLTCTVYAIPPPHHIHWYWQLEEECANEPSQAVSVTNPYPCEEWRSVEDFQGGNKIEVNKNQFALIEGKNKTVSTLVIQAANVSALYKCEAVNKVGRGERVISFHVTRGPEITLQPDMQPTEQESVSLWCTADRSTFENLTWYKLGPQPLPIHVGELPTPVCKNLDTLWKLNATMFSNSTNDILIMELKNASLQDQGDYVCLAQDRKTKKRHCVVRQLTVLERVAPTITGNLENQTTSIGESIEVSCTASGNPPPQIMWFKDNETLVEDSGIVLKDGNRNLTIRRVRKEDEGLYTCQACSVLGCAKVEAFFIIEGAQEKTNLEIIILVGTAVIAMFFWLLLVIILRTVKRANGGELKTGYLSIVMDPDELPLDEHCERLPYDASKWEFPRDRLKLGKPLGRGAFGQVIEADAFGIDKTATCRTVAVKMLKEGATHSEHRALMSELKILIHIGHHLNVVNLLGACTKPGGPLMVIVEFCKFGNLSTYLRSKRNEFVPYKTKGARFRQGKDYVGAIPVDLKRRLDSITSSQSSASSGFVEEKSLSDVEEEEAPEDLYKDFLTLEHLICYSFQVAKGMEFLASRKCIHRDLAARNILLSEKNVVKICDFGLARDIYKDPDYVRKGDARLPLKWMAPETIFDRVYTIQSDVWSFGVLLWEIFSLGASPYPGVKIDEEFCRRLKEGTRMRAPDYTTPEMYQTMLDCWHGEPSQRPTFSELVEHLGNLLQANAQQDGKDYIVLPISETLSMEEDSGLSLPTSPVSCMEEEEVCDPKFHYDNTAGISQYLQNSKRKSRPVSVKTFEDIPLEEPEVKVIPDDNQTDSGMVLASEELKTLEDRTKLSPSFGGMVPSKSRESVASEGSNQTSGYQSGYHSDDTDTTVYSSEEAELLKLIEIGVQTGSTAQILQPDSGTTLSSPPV
# Method Notes: Kinase activity test (ReactionBiology), % enzyme activity relative to DMSO;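 for % Enzyme Activity (relative to DMSO controls), Average: VEGFR2 was one member of a ten-kinase screening panel testing marketed FDA-approved drugs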
# Format: biochemical
# Parameters: purchased ReactionBiology
# Run Conditions: VEGFR2; 10 uM; Average
Property Label: % Enzyme Activity (relative to DMSO controls), Average (%)

compound="Cc1ccc(-c2cc(C(F)(F)F)nn2-c2ccc(S(N)(=O)=O)cc2)cc1 [Celecoxib]" reported_measurement=110.02
compound="CCc1nc(N)nc(N)c1-c1ccc(Cl)cc1 [Pyrimethamine]" reported_measurement=102.76
compound="CN1[C@@H]2CC[C@H]1C[C@@H](OC(=O)c1c[nH]c3ccccc13)C2 [Tropisetron]" reported_measurement=97.73
compound="CCCCC1C(=O)N(c2ccccc2)N(c2ccccc2)C1=O [Phenylbutazone]" reported_measurement=96.15
compound="CN[C@H]1CC[C@@H](c2ccc(Cl)c(Cl)c2)c2ccccc21 [Sertraline]" reported_measurement=105.91
compound="CNCCCN1c2ccccc2CCc2ccccc21 [Desipramine]" reported_measurement=89.29
compound="CC(C)(Oc1ccc(CCNC(=O)c2ccc(Cl)cc2)cc1)C(=O)O [Bezafibrate]" reported_measurement=106.53
compound="O=C(N[C@H](CO)[C@H](O)c1ccc([N+](=O)[O-])cc1)C(Cl)Cl [Chloramphenicol]" reported_measurement=107.54
compound="CN1CC(=O)N2[C@H](c3ccc4c(c3)OCO4)c3[nH]c4ccccc4c3C[C@@H]2C1=O [Tadalafil]" reported_measurement=97.95
compound="O=c1[nH]cc(F)c(=O)[nH]1 [Fluorouracil]" reported_measurement=105.92
compound="COc1ccc2c(c1)c(CC(=O)O)c(C)n2C(=O)c1ccc(Cl)cc1 [Iomethacin]" reported_measurement=102.46
compound="CC(=O)[C@]1(O)Cc2c(O)c3c(c(O)c2[C@@H](O[C@H]2C[C@H](N)[C@H](O)[C@H](C)O2)C1)C(=O)c1ccccc1C3=O [Idarubicin]" reported_measurement=106.65
compound="Cn1c(=O)cc(N2CCC[C@@H](N)C2)n(Cc2ccccc2C#N)c1=O [Alogliptin]" reported_measurement=104.24
compound="C[C@]12CC[C@@H]3c4ccc(O)cc4CC[C@H]3[C@@H]1CCC2=O [Estrone]" reported_measurement=104.79
compound="COc1cccc2c1C(=O)c1c(O)c3c(c(O)c1C2=O)C[C@@](O)(C(=O)CO)C[C@@H]3O[C@H]1C[C@H](N)[C@H](O)[C@H](C)O1 [Doxorubicin]" reported_measurement=100.16
compound="C[C@]12CCC(=O)C=C1CC[C@@H]1[C@@H]2[C@@H](O)C[C@@]2(C)[C@H]1CC[C@]2(O)C(=O)CO [Hydrocortisone]" reported_measurement=102.28
compound="CN(C)CCCN1c2ccccc2Sc2ccc(Cl)cc21 [Chlorpromazine]" reported_measurement=105.67
compound="Oc1ccc(O)cc1 [Hydroquinone]" reported_measurement=108.92

* * *

# Target System: DAPK1 (Homo sapiens)
# Construct: purchased ReactionBiology
# Sequence (P53355 whole entry): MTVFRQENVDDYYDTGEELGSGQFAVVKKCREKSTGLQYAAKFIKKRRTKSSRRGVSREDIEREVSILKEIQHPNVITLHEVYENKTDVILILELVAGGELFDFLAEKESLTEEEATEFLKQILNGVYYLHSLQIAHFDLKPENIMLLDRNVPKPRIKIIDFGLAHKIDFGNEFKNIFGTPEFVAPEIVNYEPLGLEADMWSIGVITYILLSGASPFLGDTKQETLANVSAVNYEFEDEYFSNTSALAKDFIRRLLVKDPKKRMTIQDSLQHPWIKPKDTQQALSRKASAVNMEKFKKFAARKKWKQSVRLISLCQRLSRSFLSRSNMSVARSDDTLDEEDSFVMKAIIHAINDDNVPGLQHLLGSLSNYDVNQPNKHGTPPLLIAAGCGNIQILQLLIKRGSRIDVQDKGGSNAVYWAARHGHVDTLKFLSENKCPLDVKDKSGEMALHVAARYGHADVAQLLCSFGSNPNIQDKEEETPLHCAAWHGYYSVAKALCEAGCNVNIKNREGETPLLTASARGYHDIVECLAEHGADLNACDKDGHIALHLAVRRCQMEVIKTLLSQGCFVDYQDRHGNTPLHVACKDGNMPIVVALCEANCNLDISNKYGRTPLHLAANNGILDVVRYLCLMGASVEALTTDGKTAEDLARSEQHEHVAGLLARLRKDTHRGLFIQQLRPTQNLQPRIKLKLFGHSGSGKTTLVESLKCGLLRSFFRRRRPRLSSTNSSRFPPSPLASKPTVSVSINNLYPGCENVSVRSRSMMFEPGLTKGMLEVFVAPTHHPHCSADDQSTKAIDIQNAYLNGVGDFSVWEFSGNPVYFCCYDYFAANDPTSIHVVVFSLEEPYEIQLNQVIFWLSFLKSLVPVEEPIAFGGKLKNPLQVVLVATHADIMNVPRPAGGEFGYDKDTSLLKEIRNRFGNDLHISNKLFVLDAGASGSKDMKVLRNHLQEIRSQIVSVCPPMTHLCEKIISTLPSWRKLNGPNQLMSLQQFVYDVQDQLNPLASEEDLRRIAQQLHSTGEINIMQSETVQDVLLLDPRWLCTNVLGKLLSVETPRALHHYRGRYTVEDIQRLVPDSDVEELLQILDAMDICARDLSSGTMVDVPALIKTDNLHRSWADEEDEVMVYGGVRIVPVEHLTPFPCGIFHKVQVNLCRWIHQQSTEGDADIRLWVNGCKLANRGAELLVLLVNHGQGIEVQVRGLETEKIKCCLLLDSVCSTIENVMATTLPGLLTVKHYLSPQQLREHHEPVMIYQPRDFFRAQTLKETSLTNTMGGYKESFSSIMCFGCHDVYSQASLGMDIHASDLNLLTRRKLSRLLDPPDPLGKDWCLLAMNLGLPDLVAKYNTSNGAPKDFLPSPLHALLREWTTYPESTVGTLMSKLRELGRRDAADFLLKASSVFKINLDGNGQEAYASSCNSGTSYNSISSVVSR
# Method Notes: Kinase activity test (ReactionBiology), % enzyme activity relative to DMSO
# Assay type: biochemical
# Run Conditions: DAPK1; 1 uM; replicate Data 2
Property Label: % Enzyme Activity (relative to DMSO controls), Data 2 (%)

compound="C=C[C@H]1CN2CC[C@H]1C[C@@H]2[C@@H](O)c1ccnc2ccc(OC)cc12 [Quinidine]" reported_measurement=102.52
compound="Cc1ccnc2c1NC(=O)c1cccnc1N2C1CC1 [Nevirapine]" reported_measurement=123.25
compound="COc1cc2c(c(OC)c1OC)-c1ccc(OC)c(=O)cc1[C@@H](NC(C)=O)CC2 [Colchicine]" reported_measurement=111.85
compound="CS(=O)(=O)c1ccc(C2=C(c3ccccc3)C(=O)OC2)cc1 [Rofecoxib]" reported_measurement=104.16
compound="CC(C)C[C@H](NC(=O)[C@H](Cc1ccccc1)NC(=O)c1cnccn1)B(O)O [Bortezomib]" reported_measurement=104.12
compound="N[C@H]1C(O)O[C@H](CO)[C@@H](O)[C@@H]1O (stereo partly drawn) [Glucosamine]" reported_measurement=102.61
compound="CN1[C@@H]2CC[C@H]1C[C@@H](OC(=O)c1c[nH]c3ccccc13)C2 [Tropisetron]" reported_measurement=97.84
compound="C[C@@H]1O[C@@H]1P(=O)(O)O [Fosfomycin]" reported_measurement=101.52
compound="NC[C@H](O)c1ccc(O)c(O)c1 [Norepinephrine]" reported_measurement=103.82
